Numbers sourced from PubChem BioAssay (Tox21).

- method-notes: qHTS assay to identify small molecule antagonists of the thyroid receptor (TR) signaling pathway - cell viability counter screen (AID 743064); also: nearly all actives have a fitted effect of over 50% in size
- run-parameters: GH3.TRE-Luc viability, CellTiter-Fluor, 24 h; series mostly up to 70.3 µM
Inconclusive results are not listed. The source made the active and inactive calls. Calls follow the shape of the dose curve; as a rule, active = well fitted cell-killing curve with a large enough effect in the repeat runs; inconclusive = weak or mixed curves, or effect the other way; inactive = no such curve, though single readings can be large or run the other way.
Lab note: assign the record to one of 1 (yes) for active, 0 (no) for inactive

Could you check what this test reported for C=CC(=O)OCCOC(=O)C=C ? 1 (yes)

Could you check what this test reported for CCOC(=O)c1ccc(C2CCC(NC[C@H](O)COc3ccc(O)c(NS(C)(=O)=O)c3)CC2)cc1 (stereo partly specified) ? 1 (yes)

Could you check what this test reported for Cc1ccc(-c2ccccc2)cc1 ? 0 (no)

Could you check what this test reported for C[C@H]1NCc2cc(-c3ccc4c(=O)c(C(=O)O)cn(C5CC5)c4c3OC(F)F)ccc21 ? 0 (no)

Could you check what this test reported for C=CC(=O)Nc1cc2c(Nc3ccc(F)c(Cl)c3)ncnc2cc1OCCCN1CCOCC1 ? 1 (yes)

Could you check what this test reported for OC1CCCc2ccccc21 (stereo unspecified) ? 0 (no)

---

- method-notes: Human pregnane X receptor (PXR) small molecule agonists, qHTS cell viability counter screen (AID 1346977); also: nearly all actives have a fitted effect of over 50% in size
- run-parameters: PXR-Luc HepG2 viability, CellTiter-Fluor, 24 h; series mostly up to 92.4 µM
Results filed as inconclusive are left out. Calls of active or inactive are those of the source. Calls follow the shape of the dose curve; as a rule, active = well fitted cell-killing curve with a large enough effect in the repeat runs; inconclusive = weak or mixed curves, or effect the other way; inactive = flat fitted curve, though single readings scatter.
Lab note: assign the record to one of y for active, n for inactive

Could you check what this test reported for C/C=C/C=C/COC(=O)C(C)C ? y

Could you check what this test reported for C1CCC(SSC2CCCCC2)CC1 ? n

Could you check what this test reported for CNc1ccc([N+](=O)[O-])cc1 ? y

Could you check what this test reported for Cc1cccc2cccnc12 ? n

Could you check what this test reported for CCCC(=O)OCCc1ccccc1 ? n

Could you check what this test reported for CCCCCCCCCCCCOCCOCCOCCOCCOCCOCCOCCOCCOCCO ? y

Could you check what this test reported for CCCC1CCC(=O)CC1 ? n

Could you check what this test reported for CCC(=O)OC(=O)CC ? n

Could you check what this test reported for Cc1cc(=O)oc2cc(O)cc(O)c12 ? n

Could you check what this test reported for CCC(C)[O-].CCC(C)[O-].CCOC(=O)/C=C(/C)[O-].[Al+3] ? n

Could you check what this test reported for CCC(=O)C(=O)CC ? n

Could you check what this test reported for CC(C(=O)O)c1ccc2c(c1)[nH]c1ccc(Cl)cc12 (stereo not drawn) ? n

Could you check what this test reported for O=C1OC2(c3ccc(O)cc3Oc3cc(O)ccc32)c2ccc(N=C=S)cc21 ? n

Could you check what this test reported for CC(N=C(NC#N)Nc1ccncc1)C(C)(C)C (stereo not drawn) ? n

Could you check what this test reported for COc1ccc2cc1Oc1ccc(cc1)C[C@H]1c3c(cc4c(c3Oc3cc5c(cc3OC)CCN(C)[C@@H]5C2)OCO4)CCN1C ? y

Could you check what this test reported for CCn1c2ccccc2c2cc([N+](=O)[O-])ccc21 ? n

Could you check what this test reported for Cc1c(C)c2c(c(C)c1O)CC[C@@](C)(CCC[C@H](C)CCC[C@H](C)CCCC(C)C)O2 ? n

Could you check what this test reported for CC(C)CCCCCOC(=O)CCS ? n

Could you check what this test reported for C=CC(=O)OCCOC(=O)C=C ? n

Could you check what this test reported for CC(C)(C)NSc1nc2ccccc2s1 ? n

Could you check what this test reported for Oc1ccccc1O ? n

Could you check what this test reported for Cc1ccc(C(=O)O)cc1 ? n

Could you check what this test reported for CCCCCCCCCCCCOC(=O)c1ccc(O)cc1 ? n

Could you check what this test reported for CC1=CCC(=C(C)C)CC1 ? n

Could you check what this test reported for CC1(C)CCC[C@]2(C)[C@H]3CCO[C@]3(C)CC[C@@H]12 ? n

Could you check what this test reported for O=C1CCCCCCCCCCCCCCCO1 ? n

Could you check what this test reported for COC(=O)c1ccccc1OC ? n

Could you check what this test reported for O=[N+]([O-])c1cccc(C(F)(F)F)c1 ? n
